- ASSAY TARGET: T1, P2-AA-12HGe-M
- T1 chain: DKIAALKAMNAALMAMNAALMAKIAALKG
- ASSAY: two-hybrid library CCmax;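 also: natural log of median RNA to DNA barcode read ratio; higher means stronger binding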
- ASSAY CONDITIONS: mean of both orientations
MEASUREMENT NAME: interaction score
In your answer, state the number alone without any accompanying words.

Lab note: measured interaction score of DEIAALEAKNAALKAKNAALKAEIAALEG [P1-AA-12HGe-K] was 0.464

Lab note: measured interaction score of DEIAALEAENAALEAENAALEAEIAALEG [P1-AA] was 1.8

Lab note: measured interaction score of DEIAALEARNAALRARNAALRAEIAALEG [P1-AA-12HGe-R] was -0.0699
